Measurement Label: melting point

Entry "CCOC(=O)C(Cc1cnc2ccc(OC)cc2c1)(NC(C)=O)C(=O)OCC" : reported melting point = ?
151 to 152 °C

Query (molecule): "CCc1c(CO)oc2ccc(Br)cc12" ; field requested: melting point
93 to 94 °C

Request the reported melting point associated with "CCCCc1c(C(=O)c2ccc(O)cc2)n(C)c2ccc([N+](=O)[O-])cc12"
172 °C

###

Measurement Label: melting point

Past entries and their recorded results:
INSERT INTO measurements (molecule, reported_value) VALUES
  ('COC(=O)c1c2n(c3ccccc13)Cc1ccccc1N1CCN(C)CC21 (stereo unspecified)', '157 to 159 °C'),
  ('CC(=O)CSc1ccc(S(C)(=O)=O)cc1', '95 to 97 °C');

For the molecule shown here, "Cc1ccc(SC(Cl)=C(C(Cl)=C(Cl)Cl)[N+](=O)[O-])cc1" , give the reported melting point.
110 to 111 °C

Requested read-out: melting point. Entry: "CCCCN(CCCC)C(=O)C1=NN(c2ccccc2)C(C(N)=O)=NN1c1ccccc1"
160 to 161 °C

Query (molecule): "CCCCCS(=O)(=O)NC(=O)CCc1cc(C2CC2)nn1Cc1ccc(C(F)(F)F)cc1Cl" ; field requested: melting point
152 to 154 °C

I would be grateful if you could share the reported melting point for "CCCCCCCCCCCCCCCCCCN(C)S(=O)(=O)c1cc(C(=O)OC)c([N+](=O)[O-])c(C(=O)OC)c1" .
70 to 72 °C

Fill in the blank: the reported melting point of "C(=Cc1cnc2[nH]c3ccccc3c2c1)c1ccccc1" is ____.
> 220 °C

Look up melting point: "CC(=O)c1cc(-c2ccncc2)sc1N1CCN(C)CC1"
115 to 117 °C

Request the reported melting point associated with "Clc1ccc(C2=NCCc3c2ccc2ccccc32)cc1"
138 to 140 °C

What melting point value was documented for this molecule, CNCC(O)COc1ccc(C#N)cc1 (stereo unspecified) ?
100 to 102 °C

// returns reported melting point for input "Cc1sc(-c2ccccc2)nc1CCOc1cc(COc2ccccc2CC(=O)O)on1"
159 to 160 °C

Look up melting point: O[C@H]1c2cc(OCc3ccc4ccccc4c3)ccc2OC[C@H]1Oc1cccnc1 (relative stereo)
156 to 157 °C

Field request: melting point | item: "CCOC(=O)CC(=O)C=Cc1ccccc1"
49 °C

Given the molecule "CS(=O)(=O)Nc1ccc(CC(=O)O)cc1" , what is its reported melting point?
145 to 147 °C

I have this molecule here, "COc1ccc(OCC2(Cc3c(C)nc(OC)c(C(C)C)c3C(=O)c3cc(C)cc(C#N)c3)CC2)cc1" , and I need its recorded melting point.
179 to 180 °C

###

The entries below are paired with their reported melting point.

INSERT INTO measurements (compound, reported_value) VALUES
  ('CN(Cc1cccc2c1CN(C1CCC(=O)NC1=O)C2=O)C(=O)NC(C)(C)C (stereo unspecified)', '216 to 218 °C');

Fill in: melting point of "CC(C)(O)c1cc(OCc2ccccc2)cc(C(C)(C)O)c1" is ___
146 to 147 °C

Would you mind telling me what melting point value was observed for "Cc1ccc2c(c1)CSc1nnc(C)n1-2" ?
168 °C

So what does the record say about melting point for "CCCn1c(=O)[nH]c(=O)c2[nH]c(/C=C/c3ccccc3)nc21" ?
> 295 °C

Need melting point, item "O=Cc1ccc2cc[nH]c2c1"
126 to 128 °C

###

Measurement Label: melting point (°C)

Completed entries (count: 3):
INSERT INTO results (compound, reported_value) VALUES
  ('CN(c1cccc2cc(C3=NCC(CC(=O)N4CCS(=O)(=O)CC4)S3)[nH]c12)S(=O)(=O)c1cccs1 (stereo not given)', 158),
  ('CN1CCC(OC2c3ccccc3CCn3cc(I)nc32)CC1 (stereo not given)', 126),
  ('CC(C)(C)c1cc(=S)cc(C(C)(C)C)o1', 108);

a. CC1C(=O)N(Nc2ccccc2)C1C#C[Si](C)(C)C (stereo not given)
b. O=C(Nc1ccccc1)C(CS)Cc1ccccc1 (stereo not given)
Sorting ascending by melting point, which comes first: a or b ? Refer to your chosen entry by its label in the reply.
b

###

Measurement Label: melting point

INSERT INTO results (compound, measurement_label, reported_value) VALUES
  ('CCOC(=O)c1cnoc1-c1ccc(F)cc1', 'melting point', '34 to 38 °C'),
  ('CCOc1cccnc1CSCCN=C(NC)NC#N', 'melting point', '126 to 128 °C'),
  ('O=C(Nc1ccc(S(=O)(=O)c2ccccn2)cc1)C(O)(C(F)F)C(F)F', 'melting point', '200 to 202 °C'),
  ('CC(C)(C)OC(=O)NC(CO)c1ccc(F)cc1 (stereo not given)', 'melting point', '85 to 86 °C'),
  ('Cc1nnc(-c2cc(NCc3c(C)cccc3C)c3nc(C)n(C)c3c2)o1', 'melting point', '256 to 257 °C');

Read the next record carefully.
# melting point lookup, item "CNC(=O)c1ccc(C=CC(=O)NCC(=O)N(C)c2ccc(Cl)c(CBr)c2Cl)cc1"
212 to 216 °C

###

Measurement Label: melting point

INSERT INTO measurements (molecule, measurement_label, reported_value) VALUES
  ('CN(C)C1(c2ccccc2)CCC(c2cccs2)(c2[nH]c3ccccc3c2CCc2ccncc2)CC1 (centres undefined)', 'melting point', '54 to 60 °C'),
  ('CC(C)(C)OC(=O)NC1Cc2ccccc2C2OC12 (centres undefined)', 'melting point', '118 to 119 °C');

Any idea what its melting point is? The molecule is "Cc1cc(C)c2ncc(NC(=O)Cc3cc(C(C)(C)C)c(O)c(C(C)(C)C)c3)c(-c3ccccc3Cl)c2c1"
189 to 190 °C

For the molecule "O=C(c1cccs1)N1CCCC1" , what melting point is on record?
66 to 68 °C

###

Measurement Label: melting point

Here is how some compounds turned out for melting point.
INSERT INTO assay_data (compound, reported_value) VALUES
  ('Cc1noc2nc(-c3ccccc3)cc(Cl)c12', '130 to 131 °C'),
  ('Oc1cc2c(-c3ccccc3)csc2c(Cl)c1Cl', '157 to 159 °C'),
  ('CCCCCCCCCCCCCCC(CCCCCC(=O)O)CCCCCC(=O)O', '48 to 50 °C'),
  ('C#CCON=C(C(C)=NOCc1ccccc1C(=COC)C(=O)OC)c1ccccc1', '163 to 165 °C'),
  ('Cc1cc(O)c(C)c2c1C(C)CC(C)(C)O2 (stereo not given)', '88 to 89 °C'),
  ('O=c1nc(-c2ccc(C(F)(F)F)cc2)sc2ccccc12', '122 to 123 °C');

# query: melting point of entry "Cc1nc2c(n1C)C(=O)c1ccccc1C2=O"
> 253 °C

Consider the compound shown here: "O=C(c1ccc(-n2ccc(C(F)(F)F)n2)cc1C(F)(F)F)N1Cc2cccnc2Nc2ccccc21" What is its recorded melting point?
127 to 129 °C

Can you look up the measured melting point of "CCCn1c(=O)[nH]c2ccc(C(=O)c3ncc4ccccn34)cc2c1=O" for me?
304 °C

What does the record list as melting point for "CCCN1c2ccccc2N(C)C(=O)c2cccnc21" ?
96 to 98 °C

###

Measurement Label: melting point

These recorded examples may help you get a feel for the data.
INSERT INTO results (molecule, reported_value) VALUES
  ('COc1cc(OCc2nc(-c3ccco3)oc2C)ccc1COc1nn(Cc2ccccc2)cc1C=O', '147 to 148 °C'),
  ('COC(=O)C[C@H](O)C[C@H](O)CCc1c(-c2ccc(F)cc2)c(-c2ccccc2)c(C(=O)NCc2ccc(F)cc2)n1C(C)C', '49 to 50 °C'),
  ('Cc1ccc(-n2nc(O)c3[nH]c4cc(Cl)cc(Cl)c4c(=O)c3c2=O)c(C)c1', '335 to 336 °C'),
  ('Fc1cc2c(cc1Cl)C(Cl)Cc1ccccc1S2 (centres undefined)', '94 to 96 °C');

Give its melting point value. Item: CN(C)S(=O)(=O)c1cc2c(c(Cl)c1Cl)OC(C(=O)OCC(=O)OC(c1ccccc1)c1ccccc1)C2 (centres undefined)
56 to 58 °C

Return reported melting point; argument: "COc1ccc(NC(=O)CBr)c([N+](=O)[O-])c1"
94 to 98 °C

# input molecule: "COC(=O)c1ccc(-c2cc(=O)c3ccc(N)cc3o2)cc1" ; wanted: its melting point
> 260 °C

Need melting point, item CC1CN(c2ccc(Cl)cn2)N=C1N (centres undefined)
159 to 160 °C

Looking for the measured melting point of "Cc1cc(-c2cc(C(F)(F)F)nc(-n3cnc(-c4ccc(S(N)(=O)=O)s4)c3)n2)ccc1C(F)(F)F" , can you help?
260 °C
